target: AGO2 A367P (Homo sapiens, UniProt Q9UKV8 1-859, A367P;S387D;S824A;S828D;S831D;S834A)
Sequence (Q9UKV8 whole entry A367P/S387D/S824A/S828D/S831D/S834A): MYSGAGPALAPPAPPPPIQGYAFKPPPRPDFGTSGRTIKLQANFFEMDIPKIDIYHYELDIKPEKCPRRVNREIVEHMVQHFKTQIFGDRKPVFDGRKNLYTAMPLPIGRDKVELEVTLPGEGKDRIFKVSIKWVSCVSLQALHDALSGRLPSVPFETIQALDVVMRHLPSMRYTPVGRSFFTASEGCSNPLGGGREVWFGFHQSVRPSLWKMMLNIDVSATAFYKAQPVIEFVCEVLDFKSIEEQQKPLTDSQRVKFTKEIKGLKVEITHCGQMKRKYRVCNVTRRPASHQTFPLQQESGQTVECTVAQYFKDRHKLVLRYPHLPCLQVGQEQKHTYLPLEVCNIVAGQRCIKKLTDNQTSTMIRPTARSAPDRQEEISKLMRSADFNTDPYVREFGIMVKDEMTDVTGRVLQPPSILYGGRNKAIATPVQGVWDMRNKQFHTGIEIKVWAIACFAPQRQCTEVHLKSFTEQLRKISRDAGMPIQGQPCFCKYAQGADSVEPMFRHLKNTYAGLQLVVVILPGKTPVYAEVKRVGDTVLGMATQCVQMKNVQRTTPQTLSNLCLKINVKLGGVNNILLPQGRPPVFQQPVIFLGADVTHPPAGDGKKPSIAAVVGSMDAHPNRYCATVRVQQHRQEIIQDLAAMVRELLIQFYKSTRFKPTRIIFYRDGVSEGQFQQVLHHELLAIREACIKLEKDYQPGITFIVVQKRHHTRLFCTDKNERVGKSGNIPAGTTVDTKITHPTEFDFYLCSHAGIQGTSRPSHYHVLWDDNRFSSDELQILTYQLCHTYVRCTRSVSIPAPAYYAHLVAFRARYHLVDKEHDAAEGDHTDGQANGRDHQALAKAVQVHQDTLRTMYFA
assay-procedure: RNA Bind-n-Seq (nitrocellulose filter binding and sequencing); miR-122 guide loaded in AGO2; 60 min incubation; 30 mM Tris pH 8.0, 100 mM potassium acetate, 2 mM magnesium acetate, 0.5 mM TCEP, 0.005% NP-40, 0.01 mg/ml yeast tRNA; 3 nM AGO2-miR-122, 100 nM RNA library; 60; high values mean tight binding
condition-summary: protein: recombinant; tags: His6 (N-terminal, pFastBac HTA)
value-type: binding signal

ACGCTCTA (ssRNA, constant regions annealed to DNA blockers; guide miR-122 5' phosphate) RNA 1: GAGUUCUACAGUCCGACGAUCCCAACACGCUCUACACCUGGAAUUCUCGGGUGCCAA RNA 2: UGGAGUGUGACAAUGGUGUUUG DNA 1: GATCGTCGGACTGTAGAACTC DNA 2: TTGGCACCCGAGAATTCCA :: 0.173 fold enrichment over input

Each binder below has a recorded value; state its binding signal.
1. GTGTTCCA (ssRNA, constant regions annealed to DNA blockers; guide miR-122 5' phosphate) RNA 1: GAGUUCUACAGUCCGACGAUCCCAACGUGUUCCACACCUGGAAUUCUCGGGUGCCAA RNA 2: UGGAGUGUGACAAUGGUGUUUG DNA 1: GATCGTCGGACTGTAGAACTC DNA 2: TTGGCACCCGAGAATTCCA
2. GCATCTCA (ssRNA, constant regions annealed to DNA blockers; guide miR-122 5' phosphate) RNA 1: GAGUUCUACAGUCCGACGAUCCCAACGCAUCUCACACCUGGAAUUCUCGGGUGCCAA RNA 2: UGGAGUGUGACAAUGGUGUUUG DNA 1: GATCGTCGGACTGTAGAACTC DNA 2: TTGGCACCCGAGAATTCCA

## Result
["0.197 fold enrichment over input", "0.316 fold enrichment over input"]

Each binder below has a recorded value; state its binding signal.
1. GCATCCTA (ssRNA, constant regions annealed to DNA blockers; guide miR-122 5' phosphate) RNA 1: GAGUUCUACAGUCCGACGAUCCCAACGCAUCCUACACCUGGAAUUCUCGGGUGCCAA RNA 2: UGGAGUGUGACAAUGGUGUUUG DNA 1: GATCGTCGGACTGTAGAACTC DNA 2: TTGGCACCCGAGAATTCCA
2. GTATTCCA (ssRNA, constant regions annealed to DNA blockers; guide miR-122 5' phosphate) RNA 1: GAGUUCUACAGUCCGACGAUCCCAACGUAUUCCACACCUGGAAUUCUCGGGUGCCAA RNA 2: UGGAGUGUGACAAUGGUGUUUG DNA 1: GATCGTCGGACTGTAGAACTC DNA 2: TTGGCACCCGAGAATTCCA
3. ACGCCTCG (ssRNA, constant regions annealed to DNA blockers; guide miR-122 5' phosphate) RNA 1: GAGUUCUACAGUCCGACGAUCCCAACACGCCUCGCACCUGGAAUUCUCGGGUGCCAA RNA 2: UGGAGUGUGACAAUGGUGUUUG DNA 1: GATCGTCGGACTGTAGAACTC DNA 2: TTGGCACCCGAGAATTCCA
4. GCACCCTG (ssRNA, constant regions annealed to DNA blockers; guide miR-122 5' phosphate) RNA 1: GAGUUCUACAGUCCGACGAUCCCAACGCACCCUGCACCUGGAAUUCUCGGGUGCCAA RNA 2: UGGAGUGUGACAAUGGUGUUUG DNA 1: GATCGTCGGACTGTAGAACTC DNA 2: TTGGCACCCGAGAATTCCA
5. GTATCTCG (ssRNA, constant regions annealed to DNA blockers; guide miR-122 5' phosphate) RNA 1: GAGUUCUACAGUCCGACGAUCCCAACGUAUCUCGCACCUGGAAUUCUCGGGUGCCAA RNA 2: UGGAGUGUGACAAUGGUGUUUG DNA 1: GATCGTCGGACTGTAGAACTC DNA 2: TTGGCACCCGAGAATTCCA

## Result
1. 0.168 fold enrichment over input
2. 0.446 fold enrichment over input
3. 0.15 fold enrichment over input
4. 0.171 fold enrichment over input
5. 0.128 fold enrichment over input
